target: IRAK4 enzyme (Homo sapiens (Human), UniProt Q9NWZ3); test: biochemical; type: biochemical; conditions: IRAK4 enzyme, TR-FRET, 500 μM ATP
Sequence (Q9NWZ3 whole entry): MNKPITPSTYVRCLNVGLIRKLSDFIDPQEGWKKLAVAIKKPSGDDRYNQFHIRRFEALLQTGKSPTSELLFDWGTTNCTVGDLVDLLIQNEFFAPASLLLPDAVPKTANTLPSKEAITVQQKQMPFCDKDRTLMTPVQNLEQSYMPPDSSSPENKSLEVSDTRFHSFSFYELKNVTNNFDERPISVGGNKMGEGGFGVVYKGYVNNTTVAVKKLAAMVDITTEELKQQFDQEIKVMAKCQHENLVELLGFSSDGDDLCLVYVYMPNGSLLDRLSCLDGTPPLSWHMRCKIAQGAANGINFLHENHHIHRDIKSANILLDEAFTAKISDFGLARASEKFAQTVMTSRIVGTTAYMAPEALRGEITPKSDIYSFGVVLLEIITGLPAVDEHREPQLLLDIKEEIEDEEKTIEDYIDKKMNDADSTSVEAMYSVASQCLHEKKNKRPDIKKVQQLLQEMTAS
For each record, check the reported IC50: if it is below 3 nM write Y, else write N.

Challenge: Lab note: IC50 threshold 3 nM. Does this molecule come in strictly under it? `CC1(O)CN(C(=O)CNC(=O)c2cnc(-c3ccc4cc(C#N)cnn34)cc2NC23CCC(O)(CC2)CC3)C1`
Response given: Y

###

molecular target: IRAK4 enzyme (Homo sapiens (Human), UniProt Q9NWZ3); experiment: biochemical; format: biochemical; conditions: IRAK4 enzyme, TR-FRET, 500 μM ATP
quantity name: pIC50
Numbers only, as −log10 of the molar value.

Please review the entries below; each comes with its answer.
1) N#Cc1cnn2c(-c3cc(N[C@H]4CC[C@H](N5CCOC5=O)CC4)c(C(=O)NCC(N)=O)cn3)ccc2c1
8.22
2) CC(C)(O)[C@H](F)CNC(=O)c1cnc(-c2ccc3cc(C#N)cnn23)cc1NC1CCC2(CCC(=O)N2)CC1 (stereo partly shown) [Example 832]
9.00
3) N#Cc1cnn2c(-c3cc(NC45CCC(O)(CC4)CC5)c(C(=O)NCc4cccnc4)cn3)ccc2c1
8.52
4) COC(=O)NC(C)(C)c1ccc(Nc2cc(-c3ccc4cc(C#N)cnn34)ncc2C(=O)NC[C@@H](F)C(C)(C)O)cc1
8.52
5) CC(C)(O)[C@H](F)CNC(=O)c1cnc(-c2ccc3cc(C#N)cnn23)cc1N[C@@H]1CCC[C@H](O)C1
8.70

// sample `CC(C)(O)[C@H](F)CNC(=O)c1cnc(-c2ccc3cc(C#N)cnn23)cc1N[C@@H]1CC[C@H](N)C1` , its pIC50 was 8.70

###

What pEC50 was measured for each of the following?
tested on: TNFα; test: cells; type: cell-based, human; settings: Homo sapiens, Monocyte, LPS-stimulated human monocytes, TNFα content; read-out: EC50 TNF
Give bare numbers, as −log10 of the molar value.

Here is how some molecules turned out for pEC50.
1. CC(C)(O)[C@H](F)CNC(=O)c1cnc(-c2ccc3cc(C#N)cnn23)cc1Nc1ccc(OC2COC2)cc1 [Example 567]
7.30
2. N#CCNC(=O)c1cnc(-c2ccc3cc(C#N)cnn23)cc1NC1COC1 [Example 460]
7.15
3. CNC(=O)NC[C@H]1C[C@H](Nc2cc(-c3ccc4cc(C#N)cnn34)ncc2C(=O)NC[C@@H](F)C(C)(C)O)C1 [Example 788]
7.05

Answer for every listed entry: what is its pEC50? The entries follow.
1. CC(C)Nc1cc(-c2ccc3cc(C#N)cnn23)ncc1C(=O)NCCC(C)(C)O [Example 41]
2. CC(C)(O)[C@H](F)CNC(=O)c1cnc(-c2ccc3cc(C#N)cnn23)cc1Nc1cnsc1 [Example 59]
3. CC(C)(O)[C@H](F)CNC(=O)c1cnc(-c2ccc3cc(C#N)cnn23)cc1N[C@H]1CC[C@](C)(O)CC1 [Example 445]

Response given:
7.11
7.24
7.23

###

Record form. Attribute: IC50. Fill in for each entry.
target: IRAK4 enzyme (Homo sapiens (Human)); assay: biochemical; type: biochemical; conditions: IRAK4 enzyme, TR-FRET, 500 μM ATP

1. CN(C)C(=O)C(F)(F)CNC(=O)c1cnc(-c2ccc3cc(C(N)=O)cnn23)cc1NC12CCC(O)(CC1)CC2
650 nM

Value sought for every listed molecule: IC50.
1. CC(C)(O)[C@H](F)CNC(=O)c1cnc(-c2ccc3cc(C#N)cnn23)cc1Nc1ccc(C#N)cc1
2. CC(C)Nc1cc(-c2ccc3cc(C#N)cnn23)ncc1C(=O)N[C@H]1CC[C@H](C(C)(C)O)CC1
3. Cn1cc(Nc2cc(-c3ccc4cc(C#N)cnn34)ncc2C(=O)NC[C@@H](F)C(C)(C)O)nn1

Response given:
["< 1 nM", "< 1 nM", "< 1 nM"]

Origin of values: patent US10336762B2
